# target.entity: SpSla1-D1-D2
# protocol: SPOT peptide array binding signal intensity (averaged, normalized) (arbitrary units (background-subtracted, floor 0; scale differs between SH3 domains)); higher = stronger binding of the SH3 domain to the peptide
observation.type: SPOT peptide array binding signal intensity
Respond using a number only.

Some entries whose results are on file:
- binder: "IFLRISINFPLNYPN"
  reported: 68
- binder: "IVNKPLPPLPVAGSS"
  reported: 1200
- binder: "PSRRDSLSIPRAVDA"
  reported: 2
- binder: "MAMRPIPPLPTESEY"
  reported: 2
- binder: "TTNRGPPPLPPRANV"
  reported: 1

Lookup result for `SRYRRPLTLLLLKPF` ; measured SPOT peptide array binding signal intensity: 5

Lookup result for `KRRAPPPVPKKPSSR` ; measured SPOT peptide array binding signal intensity: 1660

Lookup result for `YHSRRHPLALGFKYV` ; measured SPOT peptide array binding signal intensity: 1

Lookup result for `RPPRPPPKPLHLRTE` ; measured SPOT peptide array binding signal intensity: 13.5
